pIC50: −log10 of the molar value.
Literature compilation of pIC50 measurements on Tyrosine-protein kinase TXK (Homo sapiens).
observedProperty: pIC50

INSERT INTO results (compound, relationsign, testvalue) VALUES
  ('C=CC(=O)Nc1cc(CN2CCNC(=O)C2)cc(-c2cnc3ccccc3n2)c1', '=', 7.79),
  ('C=CC(=O)N1CC[C@]2(C1)C[C@H](n1c(NC(=O)c3ccc(-c4cn[nH]c4)s3)nc3ccccc31)C2', '=', 9.47),
  ('CC#CC(=O)N[C@H]1CC[C@H](n2nc(-c3ccc(Oc4ccccc4)cc3)c3cncnc32)CC1', '<', 6.30),
  ('C=CC(=O)N1CC[C@]2(C1)C[C@H](n1c(NC(=O)c3ccc(-c4cnco4)s3)nc3cc(CN4CCOCC4)ccc31)C2', '=', 9.04),
  ('C=CC(=O)N1CC[C@]2(C1)C[C@H](n1c(NC(=O)c3ccc(C(=O)N4CCCC4)s3)nc3ccccc31)C2', '=', 8.25),
  ('C=CC(=O)N1CC[C@]2(C1)C[C@H](n1c(NC(=O)c3cc(C(C)C)no3)nc3cc(CN4CCCC4)ccc31)C2', '=', 8.85);
